system: Plasmodium falciparum; experiment: Screen against P. falciparum Asexual Blood Stage (ABS), at 5uM; format: functional, Dd2; settings: tested at 5 uM
About 2,100 (3.2%) of roughly 65,000 compounds showed an effect of 50% or more. The median lay at about -52%. The sample as a whole holds a higher share of strong results than the screen did.
parameter_measured: INHIBITION
Please state the value followed by its unit.

The following compounds have reported results that may help.
NC1(c2nc(C(F)(F)F)cc(=O)[nH]2)CCCCC1	4.74%
CCC(O)Cn1cc(C2=CCN(Cc3cc(O)nc(C)n3)CC2)cn1 (stereo not given)	-24.6%
Cc1c(C)n(CC(O)CN2CCN(CCO)CC2)c2c(Cl)cccc12 (stereo not given)	88.6%
CCC(C)CN1CCC(n2cc(C3CCCCC3)nn2)CC1 (stereo not given)	77.1%

Query: Which INHIBITION is reported for this compound? `Cn1cc(C2=CCN(CCCOc3ccc(C(N)=O)cc3)CC2)cn1`
Reply: -64.5%

Query: Here is the next compound: `CN(C)CCN(Cc1ccco1)C(=O)Cc1cn2ccsc2n1`
Reply: -5.56%

Cited source for all entries: ChEMBL document CHEMBL4513216
